This collection of values is drawn from paper PMC9348805.

TARGET OR SYSTEM: TRPA1 (Homo sapiens, UniProt O75762)
Construct: full-length myc-tagged TRPA1 cDNA (gift of M. Caterina), transiently expressed in HEK-293 cells; Fura-2 calcium imaging
Sequence (O75762 whole entry): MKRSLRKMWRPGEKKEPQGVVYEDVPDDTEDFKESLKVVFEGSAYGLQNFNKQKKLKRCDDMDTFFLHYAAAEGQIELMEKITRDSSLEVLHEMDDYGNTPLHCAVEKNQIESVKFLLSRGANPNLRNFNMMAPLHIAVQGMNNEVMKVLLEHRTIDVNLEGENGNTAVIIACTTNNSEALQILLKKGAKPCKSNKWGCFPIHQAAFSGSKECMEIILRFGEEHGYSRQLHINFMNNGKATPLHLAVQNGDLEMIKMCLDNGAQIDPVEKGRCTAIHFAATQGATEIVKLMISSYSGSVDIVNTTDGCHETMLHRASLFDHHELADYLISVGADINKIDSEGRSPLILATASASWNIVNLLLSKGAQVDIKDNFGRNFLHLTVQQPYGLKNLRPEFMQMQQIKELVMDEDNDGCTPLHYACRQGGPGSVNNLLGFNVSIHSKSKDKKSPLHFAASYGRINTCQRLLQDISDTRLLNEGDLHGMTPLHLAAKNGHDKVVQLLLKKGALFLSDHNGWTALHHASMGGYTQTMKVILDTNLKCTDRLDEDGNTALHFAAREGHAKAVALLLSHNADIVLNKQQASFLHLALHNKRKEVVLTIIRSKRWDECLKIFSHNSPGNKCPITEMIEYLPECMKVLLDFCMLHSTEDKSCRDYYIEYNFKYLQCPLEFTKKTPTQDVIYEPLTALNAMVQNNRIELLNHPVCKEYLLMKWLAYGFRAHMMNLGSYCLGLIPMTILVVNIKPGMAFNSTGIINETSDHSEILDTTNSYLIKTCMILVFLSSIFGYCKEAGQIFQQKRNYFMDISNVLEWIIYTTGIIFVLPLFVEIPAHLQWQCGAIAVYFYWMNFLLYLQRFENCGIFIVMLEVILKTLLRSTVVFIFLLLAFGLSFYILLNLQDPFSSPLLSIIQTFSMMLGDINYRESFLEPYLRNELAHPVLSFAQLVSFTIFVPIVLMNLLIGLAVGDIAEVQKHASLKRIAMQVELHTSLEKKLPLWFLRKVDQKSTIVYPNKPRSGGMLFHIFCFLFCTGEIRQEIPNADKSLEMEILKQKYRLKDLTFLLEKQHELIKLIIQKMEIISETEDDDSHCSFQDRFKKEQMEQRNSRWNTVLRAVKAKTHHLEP
TEST NAME: calcium imaging (Fura-2) of HEK-293 cells transiently expressing TRPA1, with vector and mutant controls
EXPERIMENTAL READOUT: EC50 (µM)
Answer with a number only, understood to be in µM.

If you can, please state the reported EC50 value of CCCCCC(O)C=CC=O (stereo not shown) [4-HNE] . 48
